test method notes: Lethal dose in mice determined after intraperitoneal administration.
Format: toxicity, organism-based
particulars: mouse, in vivo, ip
measured metric: LD50

O=C(Cn1ccnc1)c1ccc(Cl)cc1 | 240 mg/kg
Cl.Oc1ccc(C(O)Cn2ccnc2)cc1O (stereo not drawn) | 1150 mg/kg
CC(C)(C(O)c1ccc(-c2ccccc2)cc1)n1ccnc1.Cl (stereo not drawn) | 420 mg/kg
O=C(CCn1ccnc1)c1ccc(CCc2ccccc2)cc1 | > 3000 mg/kg
CC(C(O)c1ccc(CCc2ccccc2)cc1)n1ccnc1.Cl (stereo not drawn) | 180 mg/kg
Cl.Oc1ccc(C(O)Cn2ccnc2)cc1 (stereo not drawn) | 1000 mg/kg
Cl.OC(Cn1ccnc1)c1ccccc1 (stereo not drawn) | 210 mg/kg
Cl.OC(Cn1ccnc1)c1ccc(Oc2ccccc2)cc1 (stereo not drawn) | 360 mg/kg

Give measured LD50 for every item shown.
1. Cl.OC(CCn1ccnc1)c1ccc(CCc2ccccc2)cc1 (stereo not drawn)
2. CC(C(=O)c1ccc(-c2ccccc2)cc1)n1ccnc1 (stereo not drawn)
3. Cl.OC(Cn1ccnc1)c1ccc(CCc2ccccc2)cc1 (stereo not drawn)
4. Cl.OC(CCn1ccnc1)c1ccc(-c2ccccc2)cc1 (stereo not drawn)
5. O=C(Cn1ccnc1)c1ccccc1

420 mg/kg
87.5 mg/kg
270 mg/kg
360 mg/kg
360 mg/kg
